All figures here come from Sander's compilation of Henry's law constants (doi:10.1002/etc.5620090606).

experiment: Henry solubility constant Hcp at 298.15 K (mol/(m3 Pa)); settings: reference: Fendinger and Glotfelty (1990)
The compounds listed here are annotated with their Henry solubility constant Hcp.

# Compound, Henry solubility constant Hcp
data = [
    ("CCOP(=S)(OCC)Oc1nc(Cl)c(Cl)cc1Cl", 2.4),
    ("C1=Cc2cccc3cccc1c23", 0.088),
    ("CCOC(=O)CC(SP(=S)(OC)OC)C(=O)OCC (stereo not given)", 2000),
    ("c1cc2c3c(cccc3c1)CC2", 0.16),
    ("CCC(CC)Nc1c([N+](=O)[O-])cc(C)c(C)c1[N+](=O)[O-]", 12),
]
